# Test system: common purslane
# Method: Test F preemergence test
# Type: in vivo, Portulaca oleracea
# Test conditions: 62 g ai/ha, Preemergence; scale 0 to 100
Test readout: Purslane plant response rating

Exercise: Recall and state the measured Purslane plant response rating for Cn1nc(OC(F)F)c(CS(=O)(=O)c2cccc[n+]2[O-])c1C(F)(F)F .
Key: 0

Exercise: Recall and state the measured Purslane plant response rating for Cc1cc[n+]([O-])c(S(=O)(=O)C(Cl)c2c(C(F)(F)F)nn(C)c2OCC(F)(F)F)c1 (racemic) .
Key: 25

Exercise: Recall and state the measured Purslane plant response rating for CCc1cc[n+]([O-])c(S(=O)(=O)Cc2c(C(F)(F)F)nn(C)c2OCC(F)(F)F)c1 .
Key: 0

Exercise: Recall and state the measured Purslane plant response rating for Cn1nc(C(F)(F)F)c(C[S+]([O-])c2cccc[n+]2[O-])c1OC(F)F (centres unmarked) .
Key: 100

Exercise: Recall and state the measured Purslane plant response rating for Cc1cc[n+]([O-])c(S(=O)(=O)C(Cl)c2c(C(F)(F)F)nn(C)c2Cl)c1 (racemic) .
Key: 30

Exercise: Recall and state the measured Purslane plant response rating for CCn1nc(C(F)(F)F)c(CS(=O)(=O)c2cc(C)cc[n+]2[O-])c1OCC(F)(F)F .
Key: 30

Exercise: Recall and state the measured Purslane plant response rating for CCn1nc(C(F)(F)F)c(C[S+]([O-])c2cc(C)cc[n+]2[O-])c1OCC(F)(F)F (racemic) .
Key: 50

Exercise: Recall and state the measured Purslane plant response rating for Cn1nc(C(F)(F)F)c(C[S+]([O-])c2cccc[n+]2[O-])c1OCC(F)(F)F (racemic) .
Key: 100
